For each of the compounds below, state its Stability in AB White, 21-25° C. (content by LCMSMS).
Experiment: Stability of cannabinoid and Vitamin E components of Beverage 1 (AB White) stored at 8° C. and 21-25° C., LCMSMS over 570 days
Type: physicochemical
Conditions: beverage stored at 21-25° C., day 8
One number for each entry, in µg/mL.

C=C(C)[C@@H]1CCC(C)=C[C@H]1c1c(O)cc(CCC)cc1O [CBDV, cannabidivarin]
0.145

Go through the list and state Stability in AB White, 21-25° C. (content by LCMSMS) for each entry.
1. CCCCCc1cc(O)c2c(c1)OC(C)(C)[C@@H]1CCC(C)=C[C@@H]21 [D9 THC, delta-9-tetrahydrocannabinol, reference compound]
2. CCCCCc1cc(O)c(C/C=C(\C)CCC=C(C)C)c(O)c1 [CBG, cannabigerol]
3. CCCCCc1cc(O)c2c(c1)OC(C)(CCC=C(C)C)C=C2 (stereo not drawn) [CBC, cannabichromene]
4. CCCCCc1cc2c(c(O)c1C(=O)O)[C@@H]1C=C(C)CC[C@H]1C(C)(C)O2 [D9 THCA, delta-9-tetrahydrocannabinolic acid]

1. 12.3
2. 4.90
3. 0.319
4. 0.937

Values from patent US20240415914A1
